system: PfNMT (Plasmodium falciparum, UniProt Q9U419)
Sequence (Q9U419 whole entry): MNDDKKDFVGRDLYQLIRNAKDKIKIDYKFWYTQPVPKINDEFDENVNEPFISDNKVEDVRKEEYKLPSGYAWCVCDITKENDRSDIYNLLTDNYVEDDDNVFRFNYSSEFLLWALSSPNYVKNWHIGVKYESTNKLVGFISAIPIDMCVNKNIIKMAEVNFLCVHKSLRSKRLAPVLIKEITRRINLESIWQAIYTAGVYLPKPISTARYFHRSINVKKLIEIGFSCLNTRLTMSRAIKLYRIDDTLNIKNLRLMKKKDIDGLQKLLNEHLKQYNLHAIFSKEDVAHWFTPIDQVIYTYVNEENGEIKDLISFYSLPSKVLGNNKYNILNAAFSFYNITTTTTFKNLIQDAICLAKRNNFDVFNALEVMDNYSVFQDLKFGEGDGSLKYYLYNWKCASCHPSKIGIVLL
testDetails: LELP (cLogP/LE, PfNMT LE)
measuredProperty: LELP

Examples from the recorded data:
COc1cccc(CCOC(=O)c2sc3ccccc3c2OC2CCNCC2)c1 = 13.2
CC(c1ccccc1)c1nnc(-c2sc3ccccc3c2OC2CCNCC2)o1 (centres unmarked) [23a] = 12.5
O=C(OCCOc1ccccc1)c1sc2ccccc2c1OC1CCNCC1 = 14.1
Cc1n[nH]c(C)c1Cc1nnc(-c2sc3ccccc3c2OC2CCNCC2)o1 [34a] = 5.6
c1ccc(CCc2noc(-c3sc4ccccc4c3OC3CCNCC3)n2)cc1 = 15.2
COc1cc(Cc2noc(-c3sc4ccccc4c3OC3CCNCC3)n2)cc(OC)c1 = 11.8

a = COc1cc(Cc2nc(-c3sc4ccccc4c3OC3CCNCC3)no2)cc(OC)c1 [14c]
b = Cc1noc(C)c1CCc1nnc(-c2sc3ccccc3c2OC2CCNCC2)o1 [35b]
c = c1ccc(C(c2ccccc2)c2nnc(-c3sc4ccccc4c3OC3CCNCC3)o2)cc1 [23e]
Could you please sort these 3 entries by LELP from high to low? Reply: labels, ordered per the request.
c, a, b
(c: 19.4, a: 11.8, b: 7.9)

The values you see were collected from paper PMC4048319.
